# credit: patent US20260167629A1

pIC50 values by entry
system: MDA-MB-231 cell line; assay: MTS cell viability assay in MDA-MB-231 cell line; format: cell-based; settings: Homo sapiens, MDA-MB-231, 72 hours
Friendly reminder that pIC50 comes from taking -log10 of the concentration in mol/L.

Sample answers from the record:
1) Cc1nn(CCC2CCN(C)CC2)c2cc(NC(=O)c3ccc4c(c3Cl)C=CC(C)(C)O4)ccc12 [compound 38]    5.44
2) COCCn1nc(NC(=O)c2ccc3c(c2OC)C=CC(C)(C)O3)c2ccccc21 [compound 18c]    5.17
3) COc1c(C(=O)Nc2ccc3cnn(CCC4CCN(C)CC4)c3c2)ccc2c1C=CC(C)(C)O2 [compound 12k]    5.69
4) COc1c(C(=O)Nc2ccc3c(C)nn(CCCN4CCN(C)CC4)c3c2)ccc2c1C=CC(C)(C)O2 [compound 11n]    5.44

Inquiry: Give pIC50 for COc1c(C(=O)Nc2ccc3c(C)nn(CCC4CCN(C)CC4)c3c2)ccc2c1C=CC(C)(C)O2 [compound 11k]
Reply text: 5.57
